Assignment: determine reported NFκB luc, 234.4 ng/ml, w/o x linker for the given binders.
Molecular target: human LTBR on cells (human, UniProt P36941 31-435)
Assay: cell-based or functional assay
I only need the number, in RLU, no unit after it.

For reference, reported NFκB luc, 234.4 ng/ml, w/o x linker for P1AE9459 (antibody, human IgG1, kappa, L234A L235A, V domains shown, human IgG1 PG LALA; from transgenic rabbit immunization) VH: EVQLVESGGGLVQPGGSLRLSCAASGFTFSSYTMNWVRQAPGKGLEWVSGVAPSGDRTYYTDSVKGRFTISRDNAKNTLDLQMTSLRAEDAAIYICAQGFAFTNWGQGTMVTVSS VL: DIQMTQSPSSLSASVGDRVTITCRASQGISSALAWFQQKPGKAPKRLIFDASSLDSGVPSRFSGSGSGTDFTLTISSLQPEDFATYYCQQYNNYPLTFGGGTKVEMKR stands at 23500

For reference, reported NFκB luc, 234.4 ng/ml, w/o x linker for P1AF0064 (antibody, human IgG1, kappa, L234A L235A, V domains shown, human IgG1 PG LALA constant regions; V domains from rat immunization; also called LTBR (0064)) VH: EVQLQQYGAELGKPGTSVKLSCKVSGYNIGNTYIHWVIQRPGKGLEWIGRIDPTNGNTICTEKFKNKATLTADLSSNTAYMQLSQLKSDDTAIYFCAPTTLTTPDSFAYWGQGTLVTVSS VL: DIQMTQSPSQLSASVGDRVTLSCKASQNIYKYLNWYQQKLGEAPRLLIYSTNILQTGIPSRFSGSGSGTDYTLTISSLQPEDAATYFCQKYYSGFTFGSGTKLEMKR stands at 26900

For reference, reported NFκB luc, 234.4 ng/ml, w/o x linker for P1AE9452 (antibody, human IgG1, kappa, L234A L235A, V domains shown, human IgG1 PG LALA; from transgenic rabbit immunization; also called LTBR (9452)) VH: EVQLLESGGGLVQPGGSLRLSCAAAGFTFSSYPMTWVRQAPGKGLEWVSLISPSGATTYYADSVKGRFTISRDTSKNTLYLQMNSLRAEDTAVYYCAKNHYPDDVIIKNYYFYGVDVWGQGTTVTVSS VL: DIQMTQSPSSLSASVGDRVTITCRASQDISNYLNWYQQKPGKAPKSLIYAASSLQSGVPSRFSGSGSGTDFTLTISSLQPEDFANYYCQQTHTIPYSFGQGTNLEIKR stands at 13900
